B1: OR4K15 (parent)
chain: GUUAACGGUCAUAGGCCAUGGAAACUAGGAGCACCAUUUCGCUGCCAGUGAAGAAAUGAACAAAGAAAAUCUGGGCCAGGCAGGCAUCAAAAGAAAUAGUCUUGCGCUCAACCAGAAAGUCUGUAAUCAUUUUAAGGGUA

variants of: B1; assay: self-cleavage, relative activity (ratio to wild type); higher = more cleavage; in vitro, sequencing; the parent is a self-cleaving ribozyme
Assign self-cleavage to each entry below.
Answers are plain numbers.

>>> df
   mutant_code  reported_value
0   U12C U132C             0.2
1     C6U A89G            1.13
2   A33G U130A             1.1
3    A4G U120A            1.62
4        C109U            0.49
5   A23U A135G            1.35
6    A51G C77U            1.46
7   A96G A135U            2.17

I have 5 variants here; please give me self-cleavage for each one.
1. U3C U19C
2. A55G U97C
3. A69U A117G
4. G15A A56G
5. A33G A125G

RESULT:
1: 1.88; 2: 1.27; 3: 1.48; 4: 1.45; 5: 0.23

I have 6 variants here; please give me self-cleavage for each one.
1. G1U A52G
2. C85U U120G
3. G41A A135G
4. C109A
5. A54G A117U
6. A11U A66G

RESULT:
1. 1.83
2. 0.64
3. 0.99
4. 0.38
5. 0.91
6. 2.37

I have 7 variants here; please give me self-cleavage for each one.
1. A118G A125G
2. C77U A91G
3. U9C A96G
4. A5G A24G
5. A11G U38C
6. A56G A95G
7. C113G

RESULT:
0.1
1.91
1.35
1.14
0.65
1.69
0.01

I have 4 variants here; please give me self-cleavage for each one.
1. A51C U127A
2. U87C A114G
3. U49C A82U
4. A66C U132C

RESULT:
1. 2.59
2. 0.43
3. 0.2
4. 1.6

I have 3 variants here; please give me self-cleavage for each one.
1. A5G
2. A55U A67G
3. A67C A96U

RESULT:
1: 0.92; 2: 1.12; 3: 2.39

I have 7 variants here; please give me self-cleavage for each one.
1. A52G U97C
2. A11C A118U
3. G31A U38C
4. A36U U38C
5. U9C A116G
6. C77U U87C
7. G7U A59G

RESULT:
1. 1.07
2. 0.72
3. 1.93
4. 1.51
5. 0.49
6. 1.31
7. 0.98

I have 3 variants here; please give me self-cleavage for each one.
1. U97A U103A
2. U97C U100C
3. C42U A54G

RESULT:
0.18
2.15
1.96

I have 7 variants here; please give me self-cleavage for each one.
1. A11G A134C
2. U57C A92G
3. A47G C112U
4. U38A U108C
5. U130C G136U
6. U3A G74A
7. A4G U19A

RESULT:
[0.5, 0.71, 0.01, 0.01, 1.19, 0.39, 0.78]
